System under test: T1, human IL-36R on cells (human, UniProt Q9HB29 20-575)
T1 sequence (looked up): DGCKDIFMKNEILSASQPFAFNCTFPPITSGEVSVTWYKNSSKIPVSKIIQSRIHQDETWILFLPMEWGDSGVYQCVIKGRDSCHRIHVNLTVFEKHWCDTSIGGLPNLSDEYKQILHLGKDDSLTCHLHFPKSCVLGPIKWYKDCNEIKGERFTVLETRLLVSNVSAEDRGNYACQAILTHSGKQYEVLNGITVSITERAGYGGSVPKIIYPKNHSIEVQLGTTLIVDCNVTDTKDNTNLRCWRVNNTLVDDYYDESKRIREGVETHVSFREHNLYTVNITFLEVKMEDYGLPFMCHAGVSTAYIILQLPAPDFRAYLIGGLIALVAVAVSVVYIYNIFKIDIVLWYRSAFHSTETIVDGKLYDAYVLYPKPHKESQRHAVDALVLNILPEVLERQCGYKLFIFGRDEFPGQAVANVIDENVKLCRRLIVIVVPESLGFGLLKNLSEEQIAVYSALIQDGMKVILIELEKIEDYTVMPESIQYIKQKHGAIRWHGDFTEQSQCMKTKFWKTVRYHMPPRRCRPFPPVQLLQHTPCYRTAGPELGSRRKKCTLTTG
Method summary: cell-based or functional assay
Measured endpoint: IC90, pNFκB, NCI/ADR-RES cells, trun-IL-36a (nM)
# unit: nM | format: bare number

Reference set (2 entries):
[
  {
    "Binder": "antibody 81B4 (antibody, V domains shown, Mouse monoclonal from hybridoma; also called 81B4E11; Mouse 81B4) VH: QVQLQQPGADFVRPGASMRLSCKASGYSFTSSWIHWVKQRPGQGLEWIGEINPGNVRTNYNENFRNKATLTVDKSSTTAYMQLRSLTSADSAVYYCTVVFYGEPYFPYWGQGTLVTVSA VL: QIVLTQSPAIMSASLGERVTMTCTASSSVSSSYFHWYQQKPGSSPKLWIYRTSNLASGVPGRFSGSGSGTSYSLTISSMEAEDAATYYCHQFHRSPLTFGAGTKLELK",
    "Test result": 1.7
  },
  {
    "Binder": "antibody 33D10 (antibody, V domains shown, Mouse monoclonal from hybridoma; also called 33D10B12; Mouse 33D10) VH: QVQLQQSGTELLKPGASVKLSCKASGNTVTSYWMHWVKQRPGQGLEWIGEILPSTGRTNYNENFKGKAMLTVDKSSSTAYMQLSSLASEDSAVYYCTIVYFGNPWFAYWGQGTLVTVSA VL: QIVLTQSPAIMSASLGERVTMTCTASSSVSSSYLHWYQKKPGSSPKLWVYSTSNLASGVPVRFSGSGSGTSYSLTISSMEAEDAATYYCHQHHRSPVTFGSGTKLEMK",
    "Test result": 1.7
  }
]

We now examine a further binder.
What IC90, pNFκB, NCI/ADR-RES cells, trun-IL-36a value was documented for this binder, antibody 81A1 (antibody, V domains shown, Mouse monoclonal from hybridoma; also called 81A1D1; Mouse 81A1) VH: QVQLKESGPGLVAPSQSLFITCTVSGFSLSSYEINWVRQVPGKGLEWLGVIWTGITTNYNSALISRLSISKDNSKSLVFLKMNSLQTDDTAIYYCARGTGTGFYYAMDYWGQGTSVTVSS VL: DIQMTQTTSSLSASLGDRVTISCRASQDIYKYLNWYQQKPDGTLKLLIYYTSGLHSGVPSRFSGSGSGTDFSLTISNLEPEDIATYFCQQDSKFPWTFGGDTKLEIK ?
2.7
